Attribution: ChEMBL document CHEMBL4811250

# Test system: Isocitrate dehydrogenase [NADP] cytoplasmic (Homo sapiens), O75874 [R132C]
# Sequence (O75874 whole entry R132C): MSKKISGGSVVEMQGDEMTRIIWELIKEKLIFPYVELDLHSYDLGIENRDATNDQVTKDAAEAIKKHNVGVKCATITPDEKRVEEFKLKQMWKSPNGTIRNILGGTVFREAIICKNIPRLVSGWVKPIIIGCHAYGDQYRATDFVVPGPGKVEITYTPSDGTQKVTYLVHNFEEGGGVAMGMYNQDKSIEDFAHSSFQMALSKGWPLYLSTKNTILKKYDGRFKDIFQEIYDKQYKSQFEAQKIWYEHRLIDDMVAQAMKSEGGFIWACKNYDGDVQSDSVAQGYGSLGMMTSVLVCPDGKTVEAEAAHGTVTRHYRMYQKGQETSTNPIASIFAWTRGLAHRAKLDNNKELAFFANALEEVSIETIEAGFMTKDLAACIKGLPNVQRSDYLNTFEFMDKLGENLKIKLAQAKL
# ASSAY_TEXT: Inhibition of IDH1 R132C mutant (unknown origin) assessed as reduction in NADPH consumption using alpha-KG as substrate at 38 uM incubated for 5 mins by diaphorase/resazurin-coupled system relative to control
MEASURED_METRIC: inhibition (%)

1) CCc1cccc(CC)c1-n1c(C)c(C(=O)NCc2ccccc2)cc(-c2nc(-c3ccc(Cl)cc3)cs2)c1=O	41
2) CC1(C)CC(=O)c2cc(-c3nc(-c4ccc(Cl)cc4)cs3)c(=O)n(-c3ccccc3-c3ccccc3)c2C1	67
3) COc1ccc(OC)c(-n2c3c(cc(-c4nc(-c5ccc(Cl)cc5)cs4)c2=O)C=CC(C)(C)C3)c1	76
4) CCc1cccc(CC)c1-n1c(C=C(C)C)c(C(=O)N2CCNCC2)cc(-c2nc(-c3ccc(Cl)cc3)cs2)c1=O	97
5) CC1(C)CC(=O)c2cc(-c3nc(-c4ccc(Cl)cc4)cs3)c(=O)n(-c3ccccc3OCc3ccccc3)c2C1	61
6) COc1ccc(OC)c(-n2c3c(cc(-c4nc5ccc(Cl)cc5s4)c2=O)C(=O)CC(C)(C)C3)c1	94
7) COc1ccc(OC)c(-n2c3c(cc(-c4cccc(-c5ccc(Cl)cc5)n4)c2=O)C(=O)CC(C)(C)C3)c1	46
8) CC1(C)CC(=O)c2cc(-c3nc(-c4ccc(Cl)cc4)cs3)c(=O)n(-c3ccccc3O)c2C1	61
9) CNc1ccccc1-n1c2c(cc(-c3nc(-c4ccc(Cl)cc4)cs3)c1=O)C(=O)CC(C)(C)C2	43
10) CC1(C)CC(=O)c2cc(-c3nc(-c4ccc(Cl)cc4)cs3)c(=O)n(-c3ccccc3C(F)(F)F)c2C1	87
11) COc1cc(C(=O)O)ccc1-n1c2c(cc(-c3nc(-c4ccc(Cl)cc4)cs3)c1=O)C(=O)CC(C)(C)C2	43
12) COc1ccccc1-n1c2c(cc(-c3nc(-c4ccc(Cl)cc4)cs3)c1=O)C(=O)CC(C)(C)C2	65
13) CCc1cccc(CC)c1-n1c(C)c(C(=O)NCCOC)cc(-c2nc(-c3ccc(Cl)cc3)cs2)c1=O	102
14) COc1ccccc1Cn1c2c(cc(-c3nc(-c4ccc(Cl)cc4)cs3)c1=O)C(=O)CC(C)(C)C2	53
15) CCc1cccc(CC)c1-n1c(C(C)C)c(C(=O)N2CCNCC2)cc(-c2nc(-c3ccc(Cl)cc3)cs2)c1=O	92
16) CCc1cccc(CC)c1-n1c(C)c(C(=O)NC2CCCCC2)cc(-c2nc(-c3ccc(Cl)cc3)cs2)c1=O	31
17) COc1cccc(OC)c1-n1c2c(cc(-c3nc(-c4ccc(Cl)cc4)cs3)c1=O)C(=O)CC(C)(C)C2	75
18) CCc1cccc(CC)c1-n1c(C)c(C(=O)NC)cc(-c2nc(-c3ccc(Cl)cc3)cs2)c1=O	64
19) CC1(C)CC(=O)c2cc(-c3nc(-c4ccc(Cl)cc4)cs3)c(=O)n(-c3ccccc3F)c2C1	49
20) CCc1cccc(CC)c1-n1c(CCC(F)(F)F)c(C(=O)N2CCNCC2)cc(-c2nc(-c3ccc(Cl)cc3)cs2)c1=O	82
21) CC1(C)CC(=O)c2cc(-c3nc(-c4ccc(Cl)cc4)cs3)c(=O)n(-c3ccccc3C(=O)O)c2C1	105
22) CCc1cccc(CC)c1-n1c(CC2CCOC2)c(C(=O)N2CCNCC2)cc(-c2nc(-c3ccc(Cl)cc3)cs2)c1=O (stereo not drawn)	91
23) CCOc1cccc(OCC)c1-n1c2c(cc(-c3nc(-c4ccc(Cl)cc4)cs3)c1=O)C(=O)CC(C)(C)C2	86
24) CCc1cccc(CC)c1-n1c2c(cc(-c3nc(-c4ccc(Cl)cc4)cs3)c1=O)C(=O)CC(C)(C)C2	82
25) COc1cccc(C)c1-n1c2c(cc(-c3nc(-c4ccc(Cl)cc4)cs3)c1=O)C(=O)CC(C)(C)C2	72
26) COc1ccc(OC)c(-n2c3c(cc(-c4nc(-c5ccc(Cl)cc5)cs4)c2=O)C(=O)NCC3)c1	65
27) COc1ccc(OC)c(-n2c3c(cc(-c4cc(-c5ccccc5)[nH]n4)c2=O)C(=O)CC(C)(C)C3)c1	41
28) COc1ccc(OC)c(-n2c3c(cc(-n4cnc(-c5ccccc5)c4)c2=O)C(=O)CC(C)(C)C3)c1	44
29) COc1ccc(OC)c(-n2c(=O)c(-c3nc(-c4ccc(Cl)cc4)cs3)cc3c(O)cccc32)c1	36
30) CCOc1ccccc1-n1c2c(cc(-c3nc(-c4ccc(Cl)cc4)cs3)c1=O)C(=O)CC(C)(C)C2	81
31) CCc1ccccc1-n1c2c(cc(-c3nc(-c4ccc(Cl)cc4)cs3)c1=O)C(=O)CC(C)(C)C2	83
32) COc1ccc(OC)c(-n2c3c(cc(-c4ccn(-c5ccccc5)n4)c2=O)C(=O)CC(C)(C)C3)c1	46
33) CN(C)c1ccccc1-n1c2c(cc(-c3nc(-c4ccc(Cl)cc4)cs3)c1=O)C(=O)CC(C)(C)C2	57
